Test system: ATS189
Test: qHTS profiling for inhibitors of Plasmodium falciparum proliferation (AID 504749); also: nearly all actives have a fitted effect of over 60% in size
Details: P. falciparum in erythrocytes, SYBR Green DNA, 72 h; series mostly up to 28.7 µM
Records with an inconclusive call do not appear. Activity calls are given as the source filed them. Calls follow the shape of the dose curve; as a rule, active = well fitted inhibition curve with a large enough effect; inconclusive = small, poorly fitted or top-dose-only effect; inactive = flat fitted curve, though single readings scatter.

| MOLECULE SMILES | outcome |
| --- | --- |
| O=C(O)CCC(=O)C(=O)O | inactive |
| C[C@H]1C[C@H]2[C@@H]3CCC4=CC(=O)C=C[C@]4(C)[C@@]3(F)[C@@H](O)C[C@]2(C)[C@@]1(O)C(=O)CO | inactive |
| CC(C)=O | inactive |

* * *

Tested on: P94_40
Test: qHTS profiling for inhibitors of Plasmodium falciparum proliferation (AID 504749); also: nearly all actives have a fitted effect of over 60% in size
Conditions: P. falciparum in erythrocytes, SYBR Green DNA, 72 h; series mostly up to 28.7 µM
Results filed as inconclusive are left out. The source made the active and inactive calls. Calls follow the shape of the dose curve; as a rule, active = well fitted inhibition curve with a large enough effect; inconclusive = small, poorly fitted or top-dose-only effect; inactive = flat fitted curve, though single readings scatter.
I would appreciate it if you answered using one of these outcomes: active, inactive

Each compound tested received a call. Report the one for C=CCSSSCC=C . inactive

Answer briefly: the call reported for Cc1ccccc1OCC(O)CNCCOc1ccc(C(N)=O)cc1 (centres undefined) in this assay. inactive

Which outcome was entered for the compound Clc1cc(Cl)c(OCC#CI)cc1Cl in this test? active

Test call, this compound: COC(F)(F)C(Cl)Cl inactive

Could you check what this test reported for CCCCCCOc1ccc(C(=N)N(CCCC)CCCC)c2ccccc12 ? active

What was the test verdict on CCCCCCCC(=O)O ? inactive

Record lookup: outcome of this test for Nc1c(Br)cc(Br)cc1CNC1CCC(O)CC1 (centres undefined) ? inactive

For CCCCC(C)(O)C/C=C/[C@H]1[C@H](O)CC(=O)[C@@H]1CCCCCCC(=O)OC (some centres undefined) , what call appears in the results of this test? inactive

Test call, this compound: COC(=O)CCC(=O)CN inactive

Please state the recorded outcome for this compound: Cc1cc(C(=O)NNCc2ccccc2)no1 inactive

// outcome(item) with item = IC(I)I inactive

Recorded test outcome, item O=CCCCC=O inactive

What is the recorded call for this compound in the test? COC(C(=O)C(O)C(C)O)C1Cc2cc3cc(OC4CC(OC5CC(O)C(O)C(C)O5)C(O)C(C)O4)c(C)c(O)c3c(O)c2C(=O)C1OC1CC(OC2CC(OC3CC(C)(O)C(O)C(C)O3)C(O)C(C)O2)C(O)C(C)O1 (centres undefined) active

Hello, I am checking results. What call was entered for O=C(O)CCC(=O)C(=O)O ? inactive

Assay outcome for O=S(=O)(O)O : what was it? inactive

Please state the recorded outcome for this compound: CCCCCCCCCCCC[n+]1ccc2ccccc2c1 active

For this compound, state the assay outcome: O=C(O)CN(CCN(CC(=O)O)CC(=O)O)CC(=O)O inactive

Assay result, entry O=C(O)c1cc(=O)c2c3nc4ccccc4oc-3cc(=O)c2[nH]1 — outcome? inactive

Recorded test call requested for CCCCCCCC/C=C\CCCCCCCC(=O)O inactive

Test call for this compound, please: C[C@]12O[C@H](C[C@]1(O)CO)n1c3ccccc3c3c4c(c5c6ccccc6n2c5c31)CNC4=O active

Give the logged outcome of this assay for the following compound: CCCCCCCCCCCCCCCC(=O)OCC(COC(=O)CCCCCCCCCCCCCCC)OC(=O)CCCCCCCCCCCCCCC inactive

Record request — test call for Cc1c(C)c2c(c(C)c1O)CC[C@@](C)(CCC[C@H](C)CCC[C@H](C)CCCC(C)C)O2 inactive

What is the recorded call for this compound in the test? O=C1C(=O)c2ncccc2-c2cccnc21 active

In this assay, the call recorded for CC(C)(C)C(=O)OCOC(=O)[C@@H]1N2C(=O)[C@@H](N=CN3CCCCCC3)[C@H]2SC1(C)C was what? inactive

Recorded test call requested for Oc1cc(O)c2c(c1)OC(c1ccc(O)c(O)c1)C(O)C2 (centres undefined) inactive

So what was the verdict on CC(=O)Oc1c(C)cc(OCC(O)CNC(C)C)c(C)c1C (centres undefined) in this test? inactive

GET /call?item= COc1ccc2c3c1O[C@H]1C[C@@H](O)C=C[C@@]31CCN(C)C2 returns the recorded outcome of this test. inactive

Identify the outcome logged in this assay for the compound shown: C[C@]12CCC(=O)C=C1CC[C@@H]1[C@@H]2[C@@H](O)C[C@@]2(C)[C@H]1CC[C@]2(O)C(=O)COP(=O)(O)O inactive

Give the logged outcome of this assay for the following compound: CCNC(=O)[C@@H]1CCCN1C(=O)[C@H](CCCN=C(N)N)NC(=O)[C@H](CC(C)C)NC(=O)[C@@H](Cc1c[nH]c2ccccc12)NC(=O)[C@H](Cc1ccc(O)cc1)NC(=O)[C@H](CO)NC(=O)[C@H](Cc1c[nH]c2ccccc12)NC(=O)[C@H](Cc1cnc[nH]1)NC(=O)[C@@H]1CCC(=O)N1 active

* * *

System: P93_24
Test: qHTS profiling for inhibitors of Plasmodium falciparum proliferation (AID 504749); also: nearly all actives have a fitted effect of over 60% in size
Details: P. falciparum in erythrocytes, SYBR Green DNA, 72 h; series mostly up to 28.7 µM
Records with an inconclusive call do not appear. Calls of active or inactive are those of the source. The call rests on the fitted dose curve; in most records, active means well fitted inhibition curve with a large enough effect; inconclusive means small, poorly fitted or top-dose-only effect; inactive means flat fitted curve, though single readings scatter.
The categories you may choose from are Y for active, N for inactive

Write down the call the test reported for this molecule. Item: C[C@@H]1CCC2[C@@H](C)[C@@H](O)O[C@@H]3O[C@@]4(C)CC[C@@H]1[C@@]23OO4 (stereo partly specified) Y

So what was the verdict on Cc1cn([C@H]2C[C@H](O)[C@@H](CO)O2)c(=O)[nH]c1=O in this test? N

Please share the test call associated with Cc1ccccc1OCC(O)CNCCOc1ccc(C(N)=O)cc1 (stereo unspecified) . N

// outcome(item) with item = CCCCCCCC(=O)O N

Hello, I am checking results. What call was entered for CC(=O)Oc1c(C)cc(OCC(O)CNC(C)C)c(C)c1C (stereo unspecified) ? N

Query: recorded result category for O=C(O)CN(CCN(CC(=O)O)CC(=O)O)CC(=O)O in this test N

* * *

Tested on: CRL-7250
Assay: Cytotoxic Profiling of Annotated Libraries Using Quantitative High-Throughput Screening (AID 1296008); also: % is scaled to controls: 0 for no effect and ±100 for the full control effect; nearly all actives have a fitted effect of over 60% in size
Settings: Five cell lines viability, CellTiter-Glo ATP luminescence, 48-72 h; hits give low values
Results filed as inconclusive are left out.
Assign max response to each entry below.
Respond numerically; units are % and should not be typed.

max response recorded for this compound, CC(C)(O)c1ccc2c(c1)C(=O)CC1[C@](C)(CO)CCC[C@]21C (some centres not stated) , is -1.72

Briefly, max response measured for C=C1CC23CCC4[C@@](C)(CCC[C@@]4(C)C(=O)O)C2CCC1C3 (some centres not stated) : -2.77

max response reported for this compound CC(=O)O[C@@H]1[C@@H](OC(=O)/C=C/c2ccccc2)[C@H](C)O[C@@H](O[C@H]2[C@@H]3C=CO[C@@H](O[C@@H]4O[C@H](CO)[C@@H](O)[C@H](O)[C@H]4O)[C@@H]3[C@@]3(CO)O[C@@H]23)[C@@H]1OC(C)=O : -9.67

Record CC(C(=O)O)C1CCC2(C)C3C(=O)C=C4C(CCC(=O)C4(C)C)C3(C)CCC12C (configuration not stated) , field max response: 0.281

max response for COc1cc(/C=C/C(=O)OC[C@H]2O[C@H](O[C@]3(CO)O[C@H](CO)[C@@H](O)[C@@H]3O)[C@H](O)[C@@H](O)[C@@H]2O)cc(OC)c1O is 0.115

Given item CC(=O)OC[C@@]12[C@@H](OC(C)=O)C[C@@H](C)[C@](C)([C@@H]3C[C@H]4C=CO[C@H]4O3)[C@H]1CCC[C@]21CO1 , the value recorded as its max response is 0.841

Summary for this compound, CC1CCC2C(C)(C)C(O)CCC2(C)C12Cc1c(O)cc3c(c1O2)CN=C3N (configuration not stated) : max response is -3.95

Documented max response of CC[C@@H](c1ccc(F)c(F)c1)n1c(C(=O)OC)c(-c2ccno2)[nH]c1=S : -7.34

The recorded max response for CC(C)=CC/C=C(/C)[C@H]1CC[C@]2(C)[C@@H]1[C@H](O)CC1[C@@]3(C)CC[C@H](O)C(C)(C)[C@@H]3[C@@H](O[C@@H]3O[C@H](CO)[C@@H](O)[C@H](O)[C@H]3O[C@@H]3O[C@@H](C)[C@H](O)[C@@H](O)[C@H]3O)C[C@]12C (some centres not stated) is -7.49

Form: compound = COc1ccc(/C=C/C(=O)O[C@@H]2[C@@H](OC(C)=O)[C@@H](OC(C)=O)[C@H](O[C@H]3[C@@H]4C=CO[C@@H](O[C@@H]5O[C@H](CO)[C@@H](O)[C@H](O)[C@H]5O)[C@@H]4[C@@]4(CO)O[C@@H]34)O[C@H]2C)cc1O ; max response = 3.11

max response in this record for O=C1C[C@@H](c2ccc(O)cc2)Oc2cc(O)ccc21 : -9.15

Input CC(=O)O[C@H](C[C@@H](C)[C@H]1C(=O)[C@H](O)[C@@]2(C)[C@@H]3CCC4C(C)(C)[C@@H](O[C@@H]5OC[C@H](O)[C@H](O)[C@H]5O)CC[C@@]45C[C@@]35CC[C@]12C)[C@@H]1OC1(C)C (some centres not stated) . Output max response: 0.817

Notebook: CC(=O)OC(CSC1CCC(=O)OC(C)CCC(=O)C1)C(=O)O (configuration not stated) , max response read as -6.05

The recorded max response for entry COc1ccc(C(OC2OC(CO)C(O)C(O)C2O)C(C)O)cc1 (configuration not stated) equals -9.11

So for CC1=C2CC3OC3(C)CCC3OC3(C)CC2OC1=O (configuration not stated) , the logged max response turned out to be -1.41

Note to self: max response recorded for O=C(O)[C@H]1CCCC[C@H]1C(=O)N1CCc2ccccc2[C@H]1CN1C(=O)c2ccccc2C1=O was 1.46

Recorded max response (compound CC1CCC2C(C)(C)C(O)CCC2(C)C12Cc1c(O)cc3c(c1O2)CN(C(CCC(N)=O)C(=O)O)C3=O (configuration not stated) ): 0.113

The measured max response associated with C[C@@H]1C(=O)O[C@H]2CC34[C@H]5C[C@@H](C(C)(C)C)C36[C@@H](OC(=O)[C@@H]6O)OC4(C(=O)O5)[C@]21O (some centres not stated) reads -2.58

CC1CCC2(C)C(CC(O)C(O)C23CO3)C1(C)CCC1=CC(=O)OC1O (configuration not stated) yielded max response of -22

Entry CC(C)CC1(C(=O)OCc2ccc(O[C@@H]3O[C@H](CO)[C@@H](O)[C@H](O)[C@H]3O)cc2)CC(=O)OC(C(=O)O)CC(=O)OCC2OC(O1)C(OC(=O)/C=C/c1ccc(O)cc1)C(O)C2O (some centres not stated) — recorded max response = 2.72

Sure, the documented max response for C=C[C@H]1[C@H](O[C@@H]2O[C@H](CO)[C@@H](O)[C@H](O)[C@H]2O)OC=C2C(=O)OCC[C@]21O is 0.194

So for C=C(C)C(C)C1OC23CC4(CO2)C(CCC2C5(C)CCC(OC6OCC(O)C(OC7OC(CO)C(O)C(OC8OCC(O)C(O)C8O)C7O)C6OC6OC(CO)C(O)C6O)C(C)(C)C5CCC24C)C3C(C)(O)C1OC(C)=O (configuration not stated) , the logged max response turned out to be -0.008
